Entries and their Bound Fraction (%b) values follow.
Target: human serum albumin (HSA) (Homo sapiens, UniProt P02768)
Sequence (P02768 25-609): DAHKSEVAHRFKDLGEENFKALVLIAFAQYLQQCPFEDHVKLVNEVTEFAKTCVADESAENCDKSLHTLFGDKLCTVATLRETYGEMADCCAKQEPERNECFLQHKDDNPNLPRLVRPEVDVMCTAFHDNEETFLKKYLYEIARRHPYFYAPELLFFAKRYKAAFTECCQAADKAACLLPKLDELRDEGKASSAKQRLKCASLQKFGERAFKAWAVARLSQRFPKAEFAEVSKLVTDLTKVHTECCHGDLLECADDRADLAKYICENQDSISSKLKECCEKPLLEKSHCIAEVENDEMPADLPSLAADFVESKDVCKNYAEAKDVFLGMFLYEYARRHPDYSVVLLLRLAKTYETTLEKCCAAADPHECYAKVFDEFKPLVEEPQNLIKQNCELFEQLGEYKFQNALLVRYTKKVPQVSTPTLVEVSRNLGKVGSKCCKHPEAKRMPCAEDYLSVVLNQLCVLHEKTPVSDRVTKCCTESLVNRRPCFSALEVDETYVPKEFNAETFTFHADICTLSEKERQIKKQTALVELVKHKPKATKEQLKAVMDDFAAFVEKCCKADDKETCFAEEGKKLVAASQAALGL
Assay: HPAC zonal elution on CHIRALPAK HSA column, bound fraction determination
Settings: values at 100% aqueous buffer, extrapolated from log k vs % ACN (11-16%); 67 mM potassium phosphate buffer pH 7.0; 25 °C
Recorded Endpoint: Bound Fraction (%b) (%)

Given Smiles: COC(=O)[C@@H](NC(=O)c1nn(CCCCCF)c2ccccc12)C(C)C
Observed: 98.9

Given Smiles: CC(C)(C)[C@H](NC(=O)c1nn(Cc2ccc(F)cc2)c2ccccc12)C(N)=O
Observed: 99.8

Given Smiles: COC(=O)[C@@H](NC(=O)c1nn(Cc2ccc(F)cc2)c2ccccc12)C(C)C
Observed: 99.7

Given Smiles: CC(C)[C@H](NC(=O)c1nn(CC2CCCCC2)c2ccccc12)C(N)=O
Observed: 99.7

Given Smiles: CCCCCn1nc(C(=O)N[C@H](C(N)=O)C(C)C)c2ccccc21
Observed: 98.7

Given Smiles: O=C(c1cccc2ccccc12)c1nc2ccccc2n1CCCCCF
Observed: 99.9

----------
Biological target: human serum albumin (HSA) (Homo sapiens, UniProt P02768)
Experiment: HPAC zonal elution on CHIRALPAK HSA column, bound fraction determination
Details: values at 100% aqueous buffer, extrapolated from log k vs % ACN (11-16%); 67 mM potassium phosphate buffer pH 7.0; 25 °C
Recorded Endpoint: Retention factor (k)

Given Smiles: COC(=O)[C@@H](NC(=O)c1nn(Cc2ccc(F)cc2)c2ccccc12)C(C)C
Target Or System: human serum albumin (HSA) (Homo sapiens, UniProt P02768)
Recorded Endpoint: Retention factor (k)
Observed: 326.38
--
Given Smiles: CC(C)[C@H](NC(=O)c1nn(CC2CCCCC2)c2ccccc12)C(N)=O
Target Or System: human serum albumin (HSA) (Homo sapiens, UniProt P02768)
Recorded Endpoint: Retention factor (k)
Observed: 294.40
--
Given Smiles: CC(C)(C)[C@H](NC(=O)c1nn(Cc2ccc(F)cc2)c2ccccc12)C(N)=O
Target Or System: human serum albumin (HSA) (Homo sapiens, UniProt P02768)
Recorded Endpoint: Retention factor (k)
Observed: 619.87
--
Given Smiles: CCCCCn1nc(C(=O)N[C@H](C(N)=O)C(C)C)c2ccccc21
Target Or System: human serum albumin (HSA) (Homo sapiens, UniProt P02768)
Recorded Endpoint: Retention factor (k)
Observed: 79.11
--
Given Smiles: O=C(c1cccc2ccccc12)c1nc2ccccc2n1CCCCCF
Target Or System: human serum albumin (HSA) (Homo sapiens, UniProt P02768)
Recorded Endpoint: Retention factor (k)
Observed: 968.23
--
Given Smiles: COC(=O)[C@@H](NC(=O)c1nn(CCCCCF)c2ccccc12)C(C)C
Target Or System: human serum albumin (HSA) (Homo sapiens, UniProt P02768)
Recorded Endpoint: Retention factor (k)
Observed: 87.30
